Target: T1, recombinant human Siglec15-his protein (human, UniProt Q6ZMC9 20-263)
T1 construct: In house made; Biotin-labeled in the capture ELISA
T1 sequence: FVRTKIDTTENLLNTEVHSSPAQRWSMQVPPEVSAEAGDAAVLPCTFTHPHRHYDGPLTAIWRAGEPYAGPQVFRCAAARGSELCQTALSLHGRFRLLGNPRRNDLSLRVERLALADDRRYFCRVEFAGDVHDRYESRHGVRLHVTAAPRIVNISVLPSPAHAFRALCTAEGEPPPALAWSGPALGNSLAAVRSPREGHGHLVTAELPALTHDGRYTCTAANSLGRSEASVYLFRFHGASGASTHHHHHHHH
Experiment: SPR Biacore T200, antibody captured by anti-human IgG, antigen as analyte, 1:1 fit
Reported Endpoint: kon (M⁻¹ s⁻¹)
Field format: number, assumed M⁻¹ s⁻¹, no unit text.

Below are worked cases with known answers.
# Binder, Units Text, Test Result
records = [
    ("anti-Siglec15 benchmark (ch5G12) (antibody, human IgG1, kappa, V domains shown, ch5G12 (US 20190202912A1); also called BM; Siglec15-ch5G9) VH: QVQLQQPGAELVKPGASVKMSCKASGYTFTSYWITWVIQRPGQGLEWIGDIYCGSDTMHYNEKFKNKATLTVDTSSSTAYMQLSSLTSEDSAVYYCARWWDYGSSYDYFDYWGQGTTLTVSS VL: DIKMTQSPSSMYASLGERVTITCKASQDINSYLSWFQQKPGKSPKTLIYRANRLVDGVPSRFSGSGSGQDYSLTISSLEYEDMGIYYCLQYDEFPYTFGGGTKLEIKR", "M⁻¹ s⁻¹", "2.27e+06"),
    ("A2A5C7E8-2 (antibody, human IgG1, kappa, V domains shown, Variant of A2A5C7E8 modified in VH CDR2 (X1 = E)) VH: EVQLVQSGAEVKKPGESLRISCKGSGYSFTTYWISWVRQMPGKGLEWMGLIDPSESYTNYSPSFQGHVTISTDKSISTAYLQWSSLKASDTAMYYCARGGYYGSEEDYWGQGTLVTVSS VL: EIVLTQSPGTLSLSPGERATLSCRASQSVSSSRLAWFQQKSGQAPRLLIFDASSRATGIPDRFSGSGSGTDFTLTISRLEPEDFAVYYCQQYGSSPRTFGQGTKVEFKR", "M⁻¹ s⁻¹", "1.66e+06"),
    ("A2A5C7E8-3 (antibody, human IgG1, kappa, V domains shown, Variant of A2A5C7E8 modified in VH CDR2 (X2 = K)) VH: EVQLVQSGAEVKKPGESLRISCKGSGYSFTTYWISWVRQMPGKGLEWMGLIDPSDSYTNYSPSFKGHVTISTDKSISTAYLQWSSLKASDTAMYYCARGGYYGSEEDYWGQGTLVTVSS VL: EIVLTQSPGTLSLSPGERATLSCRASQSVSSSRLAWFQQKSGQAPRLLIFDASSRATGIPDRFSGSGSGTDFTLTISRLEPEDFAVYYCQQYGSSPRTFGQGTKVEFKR", "M⁻¹ s⁻¹", "1.88e+06"),
]

Lab note: next binder to report on.
Prompt line: Write down kon measured for item A2A5C7E8 (antibody, V domains shown, Fully human antibody from transgenic mouse hybridoma; also called A2A5C7E8-1) VH: EVQLVQSGAEVKKPGESLRISCKGSGYSFTTYWISWVRQMPGKGLEWMGLIDPSDSYTNYSPSFQGHVTISTDKSISTAYLQWSSLKASDTAMYYCARGGYYGSEEDYWGQGTLVTVSS VL: EIVLTQSPGTLSLSPGERATLSCRASQSVSSSRLAWFQQKSGQAPRLLIFDASSRATGIPDRFSGSGSGTDFTLTISRLEPEDFAVYYCQQYGSSPRTFGQGTKVEFK
Response line: 1.94e+06
